All figures here come from ChEMBL document CHEMBL3988442.

System: Wolbachia pipientis
assay.details: Anti-Wolbachia Cell-Based Screen
Assay type: functional
Set-up: scale not given: in the data most compounds retested in dose-response had high values
condition.label: 5 µM
Out of some 48,000 compounds screened, about 13,000 (27%) showed an effect of 50% or more. This is one part of the list.
experimental.endpoint: Percent Effect (%)

- molecule: "Cc1nc(CNC(=O)NCC(O)c2ccc(F)cc2F)cs1 (stereo not drawn)"
  endpoint.unit: "%"
  measured.value: -3.131
- molecule: "Cn1cc(CCN2CCOC(CNc3cccnn3)C2)cn1 (stereo not drawn)"
  endpoint.unit: "%"
  measured.value: 102.6
- molecule: "CCOc1ncnc2c1CCN(c1cc(C(F)(F)F)ncn1)CC2"
  endpoint.unit: "%"
  measured.value: 1.194
- molecule: "CSc1nnc(CC2CCN(C(=O)CCc3cccnc3)CC2)n1C"
  endpoint.unit: "%"
  measured.value: -9.622
- molecule: "CN1CCN(C)C2(CCN(Cc3ccc(C4CCCCO4)o3)CC2)C1 (stereo not drawn)"
  endpoint.unit: "%"
  measured.value: 27.87
- molecule: "Cc1nnsc1C(=O)N1CCN(C(=O)C2CCC2)[C@@H]2CS(=O)(=O)C[C@@H]21"
  endpoint.unit: "%"
  measured.value: 2.369
- molecule: "CCC(=O)NCC(CC)Oc1cccc(F)c1 (stereo not drawn)"
  endpoint.unit: "%"
  measured.value: -9.029
- molecule: "Cc1cc(-c2ccncc2)ccc1OCC(N)=O"
  endpoint.unit: "%"
  measured.value: -1.496
- molecule: "NC(=O)c1cncc(-n2ccc(-c3cnccn3)n2)c1"
  endpoint.unit: "%"
  measured.value: -26.19
- molecule: "CC(C)(C)n1ncc2c(=O)n(CC(=O)NCCc3ccccc3)cnc21"
  endpoint.unit: "%"
  measured.value: 21.71
- molecule: "CC(OCC1CC1)C(=O)Nc1nccn1Cc1ccccc1 (stereo not drawn)"
  endpoint.unit: "%"
  measured.value: -19.61
- molecule: "CCc1c(C)sc2ncnc(N3C[C@H](O)[C@@H](N4CCCC4)C3)c12"
  endpoint.unit: "%"
  measured.value: 10.47
- molecule: "O=C(c1ccc2c(c1)CCCC2)N1CCn2ncnc2C1"
  endpoint.unit: "%"
  measured.value: 90.14
- molecule: "Cc1ncsc1C(=O)N1CCCCC1c1cc2nc(C)c(C)c(O)n2n1 (stereo not drawn)"
  endpoint.unit: "%"
  measured.value: 146.5
- molecule: "c1cnnc(NCC2CN(CCn3cccn3)CCO2)c1 (stereo not drawn)"
  endpoint.unit: "%"
  measured.value: -18.13
- molecule: "CC(=O)N[C@@H]1CN(C(=O)c2cc(C)oc2C)C[C@H]1c1ccc(C)o1"
  endpoint.unit: "%"
  measured.value: -1.342
- molecule: "Cc1cccc(C(C(=O)NCCc2nc(C)cc(=O)[nH]2)N(C)C)c1 (stereo not drawn)"
  endpoint.unit: "%"
  measured.value: 7.079
- molecule: "Cc1ccc(CN2CC3(CCN(C(=O)c4cscn4)C3)C2)s1.O=C(O)C(F)(F)F"
  endpoint.unit: "%"
  measured.value: -3.969
- molecule: "Cc1ccc([C@H]2CN(CCO)C[C@@H]2NC(=O)CN2CCCCC2=O)o1"
  endpoint.unit: "%"
  measured.value: 92.71
- molecule: "OC(CN1CCN(Cc2nnc(C3CC3)o2)CC1)c1ccccc1 (stereo not drawn)"
  endpoint.unit: "%"
  measured.value: -2.421
- molecule: "C/C=C(\\C)CN1C[C@H](NC(=O)CCOC)[C@@H](c2ccc(C)o2)C1"
  endpoint.unit: "%"
  measured.value: 82.28
- molecule: "NC(=O)CC1CCN(C(=O)CCOc2ccc(Cl)cc2)CC1"
  endpoint.unit: "%"
  measured.value: -10.96
- molecule: "N#CC1(NC(=O)c2ccn(-c3ccccc3Cl)n2)CCSC1 (stereo not drawn)"
  endpoint.unit: "%"
  measured.value: -6.951
- molecule: "C/C=C(\\C)CN1C[C@H](NC(=O)CN2CCCC2=O)[C@@H](c2ccc(C)o2)C1"
  endpoint.unit: "%"
  measured.value: 97.75
- molecule: "CNc1nc(CN2C[C@@H](NC(C)=O)[C@H](c3ccc(C)o3)C2)cs1"
  endpoint.unit: "%"
  measured.value: 0.1699
- molecule: "CC(=O)N1C[C@H](NS(=O)(=O)N2CCCC2)[C@@H](c2ccc(C)o2)C1"
  endpoint.unit: "%"
  measured.value: -3.445
- molecule: "CCc1nc(CN(C)Cc2nc(-c3ccccc3Cl)oc2C)no1"
  endpoint.unit: "%"
  measured.value: -5.34
- molecule: "CSC(C)C(=O)N1CCCN(c2ncccc2C#N)CC1 (stereo not drawn)"
  endpoint.unit: "%"
  measured.value: 94.48
- molecule: "Cc1noc(-c2ccc(N(C)Cc3nccs3)nc2)n1"
  endpoint.unit: "%"
  measured.value: -5.626
- molecule: "CC(C)C(=O)N1CCCC(Cc2cccnc2)C1 (stereo not drawn)"
  endpoint.unit: "%"
  measured.value: 104.6
- molecule: "CC(C)C(C(=O)N1CCN(c2ccncc2)CC1)n1cncn1 (stereo not drawn)"
  endpoint.unit: "%"
  measured.value: -6.945
- molecule: "O=C(CCNCc1cccc2c1OCCCO2)NC1CCCC1"
  endpoint.unit: "%"
  measured.value: -1.594
- molecule: "Cc1nnsc1C(=O)N1CCCCC1c1cc2nc(C)c(C)c(O)n2n1 (stereo not drawn)"
  endpoint.unit: "%"
  measured.value: 136.2
- molecule: "CC1CCCN(C(=O)CCc2cccnc2)C1 (stereo not drawn)"
  endpoint.unit: "%"
  measured.value: -4.583
- molecule: "Cc1ccc(C(=O)N2CCN(S(C)(=O)=O)CC2)cc1N1CCNC1=O"
  endpoint.unit: "%"
  measured.value: 0.6513
- molecule: "O=C(N[C@@H]1CN(c2ncccn2)C[C@@H]2CCCO[C@@H]21)c1cccnc1.O=C(O)C(F)(F)F.O=C(O)C(F)(F)F"
  endpoint.unit: "%"
  measured.value: -5.975
- molecule: "O=C(CN1CCCCCC1=O)NC1CCc2nccn2C1 (stereo not drawn)"
  endpoint.unit: "%"
  measured.value: 0.7111
- molecule: "CC(C)c1nc(C2CCCN(C(=O)Cc3cccnc3)C2)no1 (stereo not drawn)"
  endpoint.unit: "%"
  measured.value: -1.83
- molecule: "CC(C)C(=O)N1CCC2(CC1)NC(=O)[C@H]1CN(Cc3cccnc3)C[C@H]12"
  endpoint.unit: "%"
  measured.value: -21.16
- molecule: "O=C(c1ccc2c(c1)CCC2)N1CCn2ncnc2C1"
  endpoint.unit: "%"
  measured.value: 98.73
- molecule: "Cc1ccc(N2CCCN(C(=O)C(C(C)C)n3cncn3)CC2)nn1 (stereo not drawn)"
  endpoint.unit: "%"
  measured.value: 1.391
- molecule: "CC1c2ccsc2CCN1Cc1cc2c(cc1O)OCO2 (stereo not drawn)"
  endpoint.unit: "%"
  measured.value: 137.7
- molecule: "CN(C)CC(=O)N1Cc2cc(N(C)C)ccc2C1c1cnco1 (stereo not drawn)"
  endpoint.unit: "%"
  measured.value: -12.83
